Tested on: chimeric Caspase-9 polypeptide
Sequence (as listed by the source, change not shown): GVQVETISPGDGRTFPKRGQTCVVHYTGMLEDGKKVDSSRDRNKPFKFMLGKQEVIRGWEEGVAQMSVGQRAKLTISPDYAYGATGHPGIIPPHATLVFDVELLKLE
procedure_summary: Caspase mutant classes and basal activity (Table 3)
Assay type: cell-based, human
particulars: class heading of Table 3

molecule	Basal Activity
F404Y (protein) GFGDVGALESLRGNADLAYILSMEPCGHCLIINNVNFCRESGLRTRTGSNIDCEKLRRRFSSLHFMVEVKGDLTAKKMVLALLELAQQDHGALDCCVVVILSHGCQASHLQFPGAVYGTDGCPVSVEKIVNIFNGTSCPSLGGKPKLFFIQACGGEQKDHGFEVASTSPEDESPGSNPEPDATPFQEGLRTFDQLDAISSLPTPSDIFVSYSTFPGFVSWRDPKSGSWYVETLDDIFEQWAHSEDLQSLLLRVANAVSVKGIYKQMPGCYNFLRKKLFFKTS	Decreased
T317S (protein) GFGDVGALESLRGNADLAYILSMEPCGHCLIINNVNFCRESGLRTRTGSNIDCEKLRRRFSSLHFMVEVKGDLTAKKMVLALLELAQQDHGALDCCVVVILSHGCQASHLQFPGAVYGTDGCPVSVEKIVNIFNGTSCPSLGGKPKLFFIQACGGEQKDHGFEVASTSPEDESPGSNPEPDASPFQEGLRTFDQLDAISSLPTPSDIFVSYSTFPGFVSWRDPKSGSWYVETLDDIFEQWAHSEDLQSLLLRVANAVSVKGIYKQMPGCFNFLRKKLFFKTS	Decreased
F319W (protein) GFGDVGALESLRGNADLAYILSMEPCGHCLIINNVNFCRESGLRTRTGSNIDCEKLRRRFSSLHFMVEVKGDLTAKKMVLALLELAQQDHGALDCCVVVILSHGCQASHLQFPGAVYGTDGCPVSVEKIVNIFNGTSCPSLGGKPKLFFIQACGGEQKDHGFEVASTSPEDESPGSNPEPDATPWQEGLRTFDQLDAISSLPTPSDIFVSYSTFPGFVSWRDPKSGSWYVETLDDIFEQWAHSEDLQSLLLRVANAVSVKGIYKQMPGCFNFLRKKLFFKTS	Decreased
D315A-D330A (protein) GFGDVGALESLRGNADLAYILSMEPCGHCLIINNVNFCRESGLRTRTGSNIDCEKLRRRFSSLHFMVEVKGDLTAKKMVLALLELAQQDHGALDCCVVVILSHGCQASHLQFPGAVYGTDGCPVSVEKIVNIFNGTSCPSLGGKPKLFFIQACGGEQKDHGFEVASTSPEDESPGSNPEPAATPFQEGLRTFDQLAAISSLPTPSDIFVSYSTFPGFVSWRDPKSGSWYVETLDDIFEQWAHSEDLQSLLLRVANAVSVKGIYKQMPGCFNFLRKKLFFKTS	dead
S196D (protein) GFGDVGALESLRGNADLAYILSMEPCGHCLIINNVNFCRESGLRTRTGSNIDCEKLRRRFSDLHFMVEVKGDLTAKKMVLALLELAQQDHGALDCCVVVILSHGCQASHLQFPGAVYGTDGCPVSVEKIVNIFNGTSCPSLGGKPKLFFIQACGGEQKDHGFEVASTSPEDESPGSNPEPDATPFQEGLRTFDQLDAISSLPTPSDIFVSYSTFPGFVSWRDPKSGSWYVETLDDIFEQWAHSEDLQSLLLRVANAVSVKGIYKQMPGCFNFLRKKLFFKTS	Decreased
D330V (protein) GFGDVGALESLRGNADLAYILSMEPCGHCLIINNVNFCRESGLRTRTGSNIDCEKLRRRFSSLHFMVEVKGDLTAKKMVLALLELAQQDHGALDCCVVVILSHGCQASHLQFPGAVYGTDGCPVSVEKIVNIFNGTSCPSLGGKPKLFFIQACGGEQKDHGFEVASTSPEDESPGSNPEPDATPFQEGLRTFDQLVAISSLPTPSDIFVSYSTFPGFVSWRDPKSGSWYVETLDDIFEQWAHSEDLQSLLLRVANAVSVKGIYKQMPGCFNFLRKKLFFKTS	Decreased
G402A (protein) GFGDVGALESLRGNADLAYILSMEPCGHCLIINNVNFCRESGLRTRTGSNIDCEKLRRRFSSLHFMVEVKGDLTAKKMVLALLELAQQDHGALDCCVVVILSHGCQASHLQFPGAVYGTDGCPVSVEKIVNIFNGTSCPSLGGKPKLFFIQACGGEQKDHGFEVASTSPEDESPGSNPEPDATPFQEGLRTFDQLDAISSLPTPSDIFVSYSTFPGFVSWRDPKSGSWYVETLDDIFEQWAHSEDLQSLLLRVANAVSVKGIYKQMPACFNFLRKKLFFKTS	dead
F406Y (protein) GFGDVGALESLRGNADLAYILSMEPCGHCLIINNVNFCRESGLRTRTGSNIDCEKLRRRFSSLHFMVEVKGDLTAKKMVLALLELAQQDHGALDCCVVVILSHGCQASHLQFPGAVYGTDGCPVSVEKIVNIFNGTSCPSLGGKPKLFFIQACGGEQKDHGFEVASTSPEDESPGSNPEPDATPFQEGLRTFDQLDAISSLPTPSDIFVSYSTFPGFVSWRDPKSGSWYVETLDDIFEQWAHSEDLQSLLLRVANAVSVKGIYKQMPGCFNYLRKKLFFKTS	Decreased
